study.target: hGLP-1R (Homo sapiens, UniProt P43220)
Sequence (P43220 24-463): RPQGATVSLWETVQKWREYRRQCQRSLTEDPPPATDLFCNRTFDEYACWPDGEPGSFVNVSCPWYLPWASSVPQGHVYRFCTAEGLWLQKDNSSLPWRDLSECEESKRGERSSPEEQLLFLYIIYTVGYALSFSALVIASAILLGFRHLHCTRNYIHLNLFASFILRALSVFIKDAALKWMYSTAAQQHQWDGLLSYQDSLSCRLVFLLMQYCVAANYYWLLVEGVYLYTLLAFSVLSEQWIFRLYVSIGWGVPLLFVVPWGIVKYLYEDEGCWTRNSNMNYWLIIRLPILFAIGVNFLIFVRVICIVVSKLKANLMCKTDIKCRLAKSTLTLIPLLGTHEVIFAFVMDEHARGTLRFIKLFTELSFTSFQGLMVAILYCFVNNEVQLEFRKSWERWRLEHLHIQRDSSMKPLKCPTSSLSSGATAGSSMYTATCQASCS
measurement.notes: Functional cAMP activation in the presence of 0.1% casein (no HSA);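 note: intracellular cAMP rise after 30 min at 37 °C read by HTRF, normalized between buffer only (0%) and maximal control ligand (100%), four-parameter variable-slope fit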
Format: cell-based
study.conditions: in the presence of 0.1% casein (no HSA); geometric mean; read-out: Relative cAMP EC50, hGLP-1R
Starred links: 1 amine or outer side, 2 acyl side, 3 side chain; linkers in the order of their positions; H or OH if unused. Non-standard residues stand in square brackets, D forms with d. Groups on a side chain read outwards from the residue. No end group written: not given here. *: point of attachment. C18 diacid = O=C(O)CCCCCCCCCCCCCCCCC(=O)*; γGlu = O=C(O)[C@H](CCC(=O)[*:2])N[*:1]; αMe4Pal = C[C@](N)(Cc1ccncc1)C(=O)O; Hyp = O=C(O)[C@@H]1C[C@@H](O)CN1; 4Pal = N[C@@H](Cc1ccncc1)C(=O)O; αMeL = CC(C)C[C@](C)(N)C(=O)O; Orn = NCCC[C@H](N)C(=O)O; AEEA = NCCOCCOCC(=O)O; Aib = CC(C)(N)C(=O)O
quantity.measured: pEC50
Lab note: report pEC50 as minus log10 of the concentration in molar units, number only.

Check out these entries, answers already filled in.
substance: H-Y[Aib]QGTFTSDFS[Orn][αMeL]LDKK([AEEA-γGlu-C18 diacid])AQ[Aib]AFIEYLLEGGPSSGAP[Hyp]PGGS-NH2 [Example 236]
pEC50: 8.48

substance: H-Y[Aib]QGTFTSD[4Pal]SQ[αMeL]LD[Orn]K([γGlu-γGlu-C18 diacid])AQ[αMe4Pal]AFIEYLIAGGPSSGEPPPSGTEEE-NH2 [Example 986]
pEC50: 8.51

Task item: Give its pEC50 value. Item: Y[Aib]QGTFTSD[4Pal]SQ[αMeL]LDKK([dE-γGlu-C18 diacid])AQ[αMe4Pal]AFIEYLIE[Aib]GPSSGAPPPSGSEE-NH2 [Example 928]
Reply: 8.45

Task item: # get_value(readout='pEC50', item= Y[Aib]QGTFTSD[4Pal]SK[αMeL]LDKK([AEEA-γGlu-C18 diacid])AQ[Aib]AFIEYLIE[Aib]GESSGEPPPSGE-NH2 [Example 281] )
Reply: 8.80

Task item: Recorded pEC50 for H-Y[Aib]QGTFTSDFS[Orn][αMeL]LDKK([AEEA-γGlu-C18 diacid])AQ[Aib]AFIEYLLEGGPSSGAPPPGG[4Pal]-NH2 [Example 261] , please?
Reply: 8.51

Task item: Consider the substance H-Y[Aib]QGTFTSD[4Pal]SQ[αMeL]LDKK([AEEA-γGlu-C18 diacid])AQ[αMe4Pal]AFIEYLIE[Aib]GPSSGAPPPSGSE-NH2 [Example 886] and give its measured pEC50.
Reply: 8.57

###

Each entry below carries its reported pEC50.
study.target: hGcgR (Homo sapiens, UniProt P47871)
Sequence (P47871 26-477): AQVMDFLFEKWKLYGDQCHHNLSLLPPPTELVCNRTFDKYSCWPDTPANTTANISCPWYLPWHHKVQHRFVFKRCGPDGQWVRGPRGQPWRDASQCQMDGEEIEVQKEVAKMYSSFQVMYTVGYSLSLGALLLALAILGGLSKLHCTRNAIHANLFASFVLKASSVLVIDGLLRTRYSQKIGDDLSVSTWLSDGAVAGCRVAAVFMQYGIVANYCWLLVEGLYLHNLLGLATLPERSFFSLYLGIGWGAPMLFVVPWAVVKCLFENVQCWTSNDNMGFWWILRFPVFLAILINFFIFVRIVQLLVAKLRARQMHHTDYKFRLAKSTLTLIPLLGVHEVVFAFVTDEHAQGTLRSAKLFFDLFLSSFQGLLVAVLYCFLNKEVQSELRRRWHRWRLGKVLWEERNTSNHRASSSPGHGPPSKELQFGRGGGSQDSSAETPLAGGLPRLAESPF
measurement.notes: Functional cAMP activation in the presence of 0.1% casein (no HSA);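 note: intracellular cAMP rise after 30 min at 37 °C, read by HTRF against a cAMP standard curve, scaled from buffer only (0%) to maximal control ligand response (100%)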
Format: cell-based
study.conditions: in the presence of 0.1% casein (no HSA); geometric mean; read-out: Relative cAMP EC50, hGcgR
Starred links: 1 amine or outer side, 2 acyl side, 3 side chain; linkers in the order of their positions; H or OH if unused. Non-standard residues stand in square brackets, D forms with d. Groups on a side chain read outwards from the residue. *: point of attachment. C18 diacid = O=C(O)CCCCCCCCCCCCCCCCC(=O)*; γGlu = O=C(O)[C@H](CCC(=O)[*:2])N[*:1]; αMe4Pal = C[C@](N)(Cc1ccncc1)C(=O)O; 4Pal = N[C@@H](Cc1ccncc1)C(=O)O; αMeL = CC(C)C[C@](C)(N)C(=O)O; Orn = NCCC[C@H](N)C(=O)O; AEEA = NCCOCCOCC(=O)O; Aib = CC(C)(N)C(=O)O
// field semantics: pEC50 = negative decimal log of concentration (mol/L)

Recorded pEC50, per entry:
substance: H-Y[Aib]QGTFTSD[4Pal]S[Orn][αMeL]LDKK([AEEA-γGlu-C18 diacid])AQ[αMe4Pal]AFIEYLIE[Aib]GESSGAPPPSGS-NH2 [Example 223]
numeric.value: 8.80
--
substance: H-Y[Aib]QGTFTSD[4Pal]S[Orn][αMeL]LDKK([γGlu-γGlu-C18 diacid])AQ[αMe4Pal]AFIE[αMe4Pal]LIEGGPSSGAPPPSGS-NH2 [Example 952]
numeric.value: 8.62

Task item: Which pEC50 reading was recorded for the substance H-Y[Aib]QGTFTSD[4Pal]S[Orn][αMeL]LDKK([AEEA-γGlu-C18 diacid])AQ[αMe4Pal]AFIEYLIE[Aib]GESSGAPPPSGE-NH2 [Example 222] ?
Reply: 8.63
